biological target: UGT1A9 (Homo sapiens, UniProt O60656); construct: native enzyme in ultrapooled human liver microsomes (Corning 452161), read by mycophenolic acid glucuronidation; test: mycophenolic acid glucuronidation in human liver microsomes, cocktail, LC-MS/MS; type: biochemical; conditions: 0.2 µM mycophenolic acid (probe cocktail set B), 5 mM UDPGA, 10 mM MgCl2, alamethicin, pH 7.4, 37 °C, 60 min; read-out: IC50 (μM) / Eudesmin
Sequence (O60656 26-530): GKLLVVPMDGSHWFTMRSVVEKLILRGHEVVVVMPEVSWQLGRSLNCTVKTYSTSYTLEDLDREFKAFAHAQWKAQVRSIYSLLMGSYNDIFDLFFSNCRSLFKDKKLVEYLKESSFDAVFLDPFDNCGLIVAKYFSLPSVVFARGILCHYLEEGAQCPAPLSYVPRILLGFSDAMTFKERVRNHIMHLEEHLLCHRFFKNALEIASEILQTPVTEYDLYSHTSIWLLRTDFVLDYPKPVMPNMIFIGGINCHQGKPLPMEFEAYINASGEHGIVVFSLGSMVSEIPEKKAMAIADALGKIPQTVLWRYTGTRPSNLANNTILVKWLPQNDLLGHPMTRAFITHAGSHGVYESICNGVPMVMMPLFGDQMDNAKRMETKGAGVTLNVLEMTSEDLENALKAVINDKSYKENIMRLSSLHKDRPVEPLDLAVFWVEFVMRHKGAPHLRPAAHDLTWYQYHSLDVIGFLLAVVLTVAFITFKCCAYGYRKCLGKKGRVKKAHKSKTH
measuredMetric: IC50 (µM)
// units = µM; emit number, no label

In plain terms, COc1ccc([C@H]2OC[C@H]3[C@@H]2CO[C@@H]3c2ccc(OC)c(OC)c2)cc1OC [Eudesmin] has a documented IC50 of 173

---

molecular target: UGT1A6 (Homo sapiens); construct: native enzyme in ultrapooled human liver microsomes (Corning 452161), read by N-acetylserotonin glucuronidation; assay: N-acetylserotonin glucuronidation in human liver microsomes, cocktail, LC-MS/MS; format: biochemical; conditions: 1 µM N-acetylserotonin (probe cocktail set B), 5 mM UDPGA, 10 mM MgCl2, alamethicin, pH 7.4, 37 °C, 60 min; read-out: IC50 (μM) / Eudesmin
Sequence (P19224 27-532): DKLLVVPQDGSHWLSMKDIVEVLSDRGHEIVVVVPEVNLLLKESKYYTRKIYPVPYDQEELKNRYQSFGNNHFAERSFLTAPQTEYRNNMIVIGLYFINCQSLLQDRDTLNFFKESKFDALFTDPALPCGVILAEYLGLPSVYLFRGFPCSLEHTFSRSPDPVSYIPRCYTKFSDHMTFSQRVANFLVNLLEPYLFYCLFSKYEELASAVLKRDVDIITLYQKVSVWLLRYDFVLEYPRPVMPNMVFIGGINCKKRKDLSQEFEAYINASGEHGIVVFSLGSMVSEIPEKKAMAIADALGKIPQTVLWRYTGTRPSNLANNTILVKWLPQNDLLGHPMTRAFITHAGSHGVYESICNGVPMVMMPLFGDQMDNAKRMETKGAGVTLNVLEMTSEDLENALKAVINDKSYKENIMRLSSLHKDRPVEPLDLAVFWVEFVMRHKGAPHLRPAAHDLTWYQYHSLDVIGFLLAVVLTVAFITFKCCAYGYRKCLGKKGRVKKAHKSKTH
measuredMetric: IC50 (µM)
Please reply with the bare figure in µM and do not write the unit itself.

// sample `COc1ccc([C@H]2OC[C@H]3[C@@H]2CO[C@@H]3c2ccc(OC)c(OC)c2)cc1OC` , its IC50 was 196

---

biological target: UGT1A3 (Homo sapiens, UniProt P35503); construct: native enzyme in ultrapooled human liver microsomes (Corning 452161), read by chenodeoxycholic acid 24-acyl-glucuronidation; assay: chenodeoxycholic acid 24-acyl-glucuronidation in human liver microsomes, cocktail, LC-MS/MS; format: biochemical; settings: 2 µM chenodeoxycholic acid (probe cocktail set A), 5 mM UDPGA, 10 mM MgCl2, alamethicin, pH 7.4, 37 °C, 60 min; read-out: IC50 (μM) / Eudesmin
measuredMetric: IC50
Answer as a quantity: numeral, then unit.

Item: `COc1ccc([C@H]2OC[C@H]3[C@@H]2CO[C@@H]3c2ccc(OC)c(OC)c2)cc1OC` | IC50: 26.6 µM

---

Target: UGT1A3 (Homo sapiens, UniProt P35503)
Construct: native enzyme in ultrapooled human liver microsomes (Corning 452161), read by chenodeoxycholic acid 24-acyl-glucuronidation
Sequence (P35503 29-534): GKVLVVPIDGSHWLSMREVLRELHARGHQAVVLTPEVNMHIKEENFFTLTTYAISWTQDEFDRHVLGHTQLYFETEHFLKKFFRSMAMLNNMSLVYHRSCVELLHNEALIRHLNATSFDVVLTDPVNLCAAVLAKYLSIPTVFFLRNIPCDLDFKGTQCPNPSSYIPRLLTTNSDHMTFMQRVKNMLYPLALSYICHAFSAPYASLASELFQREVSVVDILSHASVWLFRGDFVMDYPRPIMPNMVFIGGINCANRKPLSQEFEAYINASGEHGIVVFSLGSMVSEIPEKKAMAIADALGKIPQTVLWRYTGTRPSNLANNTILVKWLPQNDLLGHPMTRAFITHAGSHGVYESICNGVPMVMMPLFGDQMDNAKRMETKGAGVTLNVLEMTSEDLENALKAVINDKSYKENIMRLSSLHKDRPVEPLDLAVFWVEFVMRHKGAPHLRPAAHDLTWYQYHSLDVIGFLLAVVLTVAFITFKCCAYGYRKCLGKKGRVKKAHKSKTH
Assay: chenodeoxycholic acid 24-acyl-glucuronidation in human liver microsomes, cocktail, LC-MS/MS
Type: biochemical
Settings: 2 µM chenodeoxycholic acid (probe cocktail set A), 5 mM UDPGA, 10 mM MgCl2, alamethicin, pH 7.4, 37 °C, 60 min; read-out: IC50 (μM) / Yangambin
measuredMetric: IC50 (µM)
Express the result in µM but write the number alone.

Value of measured IC50 for the entry `COc1cc([C@H]2OC[C@H]3[C@@H]2CO[C@@H]3c2cc(OC)c(OC)c(OC)c2)cc(OC)c1OC` : 56.5
